- Test system: KM12 colon
- EXPERIMENT_SUMMARY: NCI tumour cell line growth inhibition, 48 h; in the data active = GI50 below about 0.43 µM; inactive = the rest
Please reply with one of these outcomes: yes (1) (active), no (0) (inactive)

**Q:** I'd appreciate the recorded outcome for C=C(CNC(=O)c1ccccc1)c1ccc(C(=O)Nc2ccccc2N)cc1 from this test.
**A:** no (0)

**Q:** Please indicate how the test categorized CCNNC(=O)[C@@H]1[C@H](c2cc(OC)c(OC)c(OC)c2)c2cc3c(cc2[C@H](O)[C@H]1CO)OCO3 .
**A:** yes (1)

**Q:** Test call, this compound: Nc1nccc2c1ncn2C1OC(CO)C(O)C1O (centres undefined)
**A:** no (0)

**Q:** Which outcome did this test record for the compound C[C@@H](COCCC(=O)N1CCN(c2ncc(C(F)(F)F)cn2)CC1)Nc1cn[nH]c(=O)c1C(F)(F)F ?
**A:** no (0)

**Q:** // return assay outcome for CC1(C)CC([P+](c2ccccc2)(c2ccccc2)c2ccccc2)=NN1
**A:** no (0)

**Q:** Dear colleague, could you share the recorded outcome for N#C/C(=C\c1c(-c2ccccc2)[nH]c2ccccc12)C(=O)c1ccccc1 when you have a moment?
**A:** no (0)

**Q:** I'd appreciate the recorded outcome for O=S(=O)(NC1=NCCN1C(=S)SN1CCn2c1nsc2=S)c1ccccc1Cl from this test.
**A:** no (0)

**Q:** Could you check what this test reported for Clc1ccc(C2CC(c3cccc(Nc4ccncc4)c3)=NN2c2cc(Cl)cc(Cl)c2)cc1 (centres undefined) ?
**A:** no (0)

**Q:** Tell me the recorded outcome of this test for Cc1ccc(Nc2cc(C)nc(NCCCNc3ccnc4cc(Cl)ccc34)n2)cc1 .
**A:** no (0)

**Q:** Returns: the outcome recorded for Cc1ncc(C(=O)Nc2ccc(CN3CCN(C)CC3)c(C(F)(F)F)c2)cc1C#Cc1c(N)ncc2ccccc12 in this assay.
**A:** yes (1)

**Q:** Fill in: this test's call for O=c1oc2c3ccc4cnccc4c3[nH]c2c2ccccc12 is ___
**A:** no (0)

**Q:** Hey, what did the test say about NC(=O)c1ccccc1NC(=O)c1ccccc1Cl ?
**A:** no (0)

**Q:** Check the results log: what was the call for COc1cc(F)c(/C=C/c2cc(/C=C/c3cc(OC)c(OC)cc3F)n(-c3cc(F)cc(F)c3)n2)cc1OC ?
**A:** no (0)

**Q:** What outcome does the record of this test show for FC(F)(F)c1cccc2c(SCCc3n[nH]c(=S)o3)ccnc12 ?
**A:** no (0)

* * *

- Test system: SF-539 CNS
- EXPERIMENT_SUMMARY: NCI tumour cell line growth inhibition, 48 h
OBSERVATION_TYPE: TGI (µM)
Quick reminder: number only, in µM, skip the unit.

**Q:** Recall and state the measured TGI for CCCCCN(CCCCC)CC(C)(C)C(O)c1ccc(OC)c2ccccc12 (stereo not given) .
**A:** 17.6

**Q:** Identify measured TGI corresponding to Clc1ccc(CNc2nccc(-c3cnn4ncccc34)n2)cc1
**A:** 15.6

**Q:** Indicate its recorded TGI; the compound in question is O=C(CCSc1ccnc2c(C(F)(F)F)cccc12)N/N=C/c1cc(Cl)c(Cl)cc1Cl
**A:** 35.4

* * *

I'd be grateful if you could share measured TGI for these entries.
- System: MCF7 breast
- EXPERIMENT_SUMMARY: NCI tumour cell line growth inhibition, 48 h

**Q:** Assign TGI to the following record: CN(Cc1cnc2nc(N)nc(N)c2n1)c1ccc(C(=O)NC(CCC(=O)NC(CC(P(=O)(O)O)P(=O)(O)O)C(=O)O)C(=O)O)cc1 (stereo not drawn)
**A:** > 100 µM

**Q:** Read off the recorded TGI for CC12CCC(C(=Nc3cc(C(F)(F)F)cc(C(F)(F)F)c3)C1=O)C2(C)C (stereo not drawn)
**A:** > 100 µM

**Q:** Provide one value: measured TGI of C=C1C(=O)OC2/C=C(\CO)CC/C=C(\CO)CC(OC(=O)C(C)C)C12 (stereo not drawn)
**A:** 8.85 µM

**Q:** Look up and state reported TGI for Clc1ccc(C2CC(c3cccc(Nc4ccncc4)c3)=NN2c2cc(Cl)cc(Cl)c2)cc1 (stereo not drawn)
**A:** 4.73 µM

**Q:** Report measured TGI; entry is OCC(CCc1c[nH]c2ccccc12)c1c[nH]c2ccccc12 (stereo not drawn)
**A:** 35 µM

**Q:** Using known records, supply TGI for CCCc1nnc2sc(COc3cc(Cl)c(OCc4nn5c(CCC)nnc5s4)cc3Cl)nn12
**A:** 72.9 µM

**Q:** Quick one: give measured TGI for CCOC(=O)CCC(NC(=O)Cc1ccc(Oc2nc3ccccc3nc2-c2ccccc2)cc1)C(=O)OCC (stereo not drawn)
**A:** > 100 µM

**Q:** Report TGI for CSc1ccc(SC2c3ccc(C)cc3Oc3nc(N)c(C#N)c(N)c32)cc1 (stereo not drawn)
**A:** 4.34 µM

**Q:** Respond only with TGI recorded for NCCCN1CCN(CCCNc2nc3ccccc3c3[nH]c4ccccc4c23)CC1
**A:** 1.33 µM

**Q:** Give the measured TGI for O=C(O)CNC(=O)c1ccc2cc(C(=O)N3CC(CCl)c4ccc([N+](=O)[O-])cc43)[nH]c2c1 (stereo not drawn)
**A:** > 100 µM

**Q:** Supply recorded TGI for O=C1C2=C(SCCS2)C(=O)c2c(Sc3ccc(Cl)cc3)c(Sc3ccc(Cl)cc3)c(Sc3ccc(Cl)cc3)c(Sc3ccc(Cl)cc3)c21 here.
**A:** > 100 µM

**Q:** Quick one: give measured TGI for COC(=O)[C@H](C)NC(=O)[C@@H](OC)[C@@H]1Cc2cc3cc(OC4CC(OC5CC(O)C(O)C(C)O5)C(O)C(C)O4)c(C)c(O)c3c(O)c2C(=O)[C@H]1OC1CC(OC2CC(OC3CC(C)(O)C(O)C(C)O3)C(O)C(C)O2)C(O)C(C)O1 (stereo partly drawn)
**A:** > 50 µM

**Q:** Please look at this molecule and report its TGI: CCOC(=O)C(=CN1CCNC1=S)C(=O)OCC
**A:** > 100 µM

**Q:** For the molecule c1csc(-c2ccsc2-c2ccsc2)c1 , report TGI.
**A:** > 100 µM

**Q:** Give TGI for the following molecule: N[C@H](CCC(=O)NCP(=O)(O)O)C(=O)O
**A:** > 100 µM

**Q:** Query TGI for Cc1cc(N2CCCC2)c([N+](=O)[O-])cc1[N+](=O)[O-]
**A:** > 100 µM

**Q:** Please give the documented TGI of COc1ccc2[nH]c(C(=O)N3CC(CCl)c4c3cc(N)c3ccccc43)cc2c1 (stereo not drawn)
**A:** 0.0353 µM

**Q:** Write down TGI measured for item CCCCCCCCCCCCCCCCCC(=O)Nc1ccn(C2CCC(COP(=O)(O)O)O2)c(=O)n1 (stereo not drawn)
**A:** > 100 µM

* * *

- System: UO-31 renal
- EXPERIMENT_SUMMARY: NCI tumour cell line growth inhibition, 48 h
OBSERVATION_TYPE: TGI (µM)
// units = µM; emit number, no label

**Q:** State TGI on UO-31 renal. Entry: CCC(=O)/C(=C\I)c1ccccc1
**A:** 4.2

**Q:** State TGI on UO-31 renal. Entry: Cc1c(O)c(OC2OC(CO)C(O)C(O)C2O)cc2c1C=C[C@@H]1[C@@]2(C)C(=O)C[C@]2(C)[C@@H]([C@@](C)(O)C(=O)CCC(C)(C)O)[C@H](O)C[C@@]12C (stereo not given in full)
**A:** 44.8

**Q:** Report its TGI with UO-31 renal as the test system: Nc1ccc(C(OC(=O)c2cc3ccccc3c(Cc3c(O)c(C(=O)OC(c4ccc(N)cc4)(c4ccc(N)cc4)c4ccc(N)cc4)cc4ccccc34)c2O)(c2ccc(N)cc2)c2ccc(N)cc2)cc1
**A:** 63.4

**Q:** Give UO-31 renal TGI for the following compound: CC(C)C[C@H](NC(=O)[C@H](Cc1cccc2ccccc12)NS(=O)(=O)c1cccc2cccnc12)B(O)O
**A:** 1.06

**Q:** # return TGI for O=c1cccccc1[O-].O=c1cccccc1[O-].O=c1cccccc1[O-].[Ce+3] , test system: UO-31 renal
**A:** 84.6

**Q:** Report TGI on UO-31 renal for this entry: C=C1C(=O)OC2/C=C(\CO)CC/C=C(\CO)CC(OC(=O)C(C)C)C12 (stereo not given)
**A:** 27.4

**Q:** Report the value of TGI obtained on UO-31 renal for COc1c(Cl)ccc2c(-c3nc4cc(Cl)c(F)cc4s3)cc(=O)oc12 .
**A:** 3.15

**Q:** For UO-31 renal, give the measured TGI of the entry O=C(CSc1nnc(-c2ccc(N=Cc3ccc(Cl)cc3)cc2)o1)Nc1ccc([N+](=O)[O-])cc1
**A:** 37.2

**Q:** State TGI (UO-31 renal) of Cc1ncc(C(=O)Nc2ccc(CN3CCN(C)CC3)c(C(F)(F)F)c2)cc1C#Cc1c(N)ncc2ccccc12 .
**A:** 1.27

**Q:** Please look at N#Cc1ccc(Oc2cccc(Oc3ccccc3)c2)cc1C#N and tell me its recorded TGI on UO-31 renal.
**A:** 61.6

**Q:** Jot down TGI (UO-31 renal) of S=c1sc2cscc2s1 .
**A:** 35.6

**Q:** Report the value of TGI obtained on UO-31 renal for NCCCN1CCN(CCCNc2nc3ccccc3c3[nH]c4ccccc4c23)CC1 .
**A:** 11.8

**Q:** Report TGI under test system UO-31 renal for CCN(CC)c1ccc(N=C2C=C(Cl)C(=O)c3ncccc32)c(C)c1 .
**A:** 41.6
